Values from patent US20240117054A1

Target: T1, cynomolgus monkey FLT3 (cFLT3) expressed on RMA cells (cynomolgus monkey, UniProt A0A2K5VQ48 27-993)
T1 construct: whole, on cells; also called RMA-cFLT3; cynomolgus FLT3
T1 sequence: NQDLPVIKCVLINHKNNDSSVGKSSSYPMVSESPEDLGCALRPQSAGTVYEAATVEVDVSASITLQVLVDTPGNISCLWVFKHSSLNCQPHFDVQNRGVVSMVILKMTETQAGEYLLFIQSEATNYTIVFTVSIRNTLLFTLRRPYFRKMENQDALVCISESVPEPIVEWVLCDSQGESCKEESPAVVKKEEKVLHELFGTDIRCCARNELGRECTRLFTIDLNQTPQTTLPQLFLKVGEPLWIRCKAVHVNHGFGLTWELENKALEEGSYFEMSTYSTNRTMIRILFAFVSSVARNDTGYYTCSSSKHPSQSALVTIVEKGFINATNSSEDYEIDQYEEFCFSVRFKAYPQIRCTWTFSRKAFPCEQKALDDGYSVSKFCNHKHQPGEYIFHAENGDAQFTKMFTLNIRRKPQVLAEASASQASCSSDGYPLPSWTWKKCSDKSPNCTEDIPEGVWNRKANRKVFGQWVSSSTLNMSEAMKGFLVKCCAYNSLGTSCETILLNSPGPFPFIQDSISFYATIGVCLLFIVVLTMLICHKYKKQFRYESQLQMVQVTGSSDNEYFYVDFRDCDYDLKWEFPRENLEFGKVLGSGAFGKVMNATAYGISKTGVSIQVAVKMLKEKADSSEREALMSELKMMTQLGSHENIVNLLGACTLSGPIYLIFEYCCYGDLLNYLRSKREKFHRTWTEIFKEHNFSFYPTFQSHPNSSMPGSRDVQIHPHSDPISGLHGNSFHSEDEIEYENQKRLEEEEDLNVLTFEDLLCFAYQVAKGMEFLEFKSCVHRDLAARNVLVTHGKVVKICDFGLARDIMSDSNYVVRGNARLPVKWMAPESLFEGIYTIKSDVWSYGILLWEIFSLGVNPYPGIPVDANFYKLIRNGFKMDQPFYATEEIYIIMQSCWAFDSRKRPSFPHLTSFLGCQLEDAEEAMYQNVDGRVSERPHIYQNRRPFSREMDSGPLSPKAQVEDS
Experiment: flow cytometry, purified mAb on RMA-cFLT3 cells
Readout name: Max MFI (MFI)
Respond numerically; units are MFI and should not be typed.

Completed entries (count: 3):
- 4A4.A3 (antibody, V domains shown, Purified murine mAb from a hybridoma subclone) VH: QVTLKESGPGILQPSQTLSLTCSFSGFSLTTYGMGVGWIRQPSGKGLEWLANIWFNDNKYYNSTLKSRLTISKDTSNNQVFLKISSVDTTDTATYYCAQITTVVGTFDYWGQGSPLTVSP VL: RIVMTQSPTTMAASPGEKITITCSASSSISSIYLHWYQQKPGFSPKLLIFRTSDLASGVPPRFGGSGSGTSYSLTIGTMEAEDVATYYCQQGSSFPRTFGGGTKLEIK: 5570
- 15A11.C8 (antibody, V domains shown, Purified murine mAb from a hybridoma subclone) VH: EVQLQESGGGLVKTGGSRKLSCAASGFTFSDYGMHWVRHTPEKGLEWVVYISSGGNTIFYTDTVKGRFTISRDNAKNTLFLQMTSLRSEDTAVYFCVRQGYYYAMDYWGQGASVTVSS VL: DIQMTQTTSSLSASLGDRVTIRCRASQDITNYLNWYQQKPDGAVKLLISYTSILQSGVPSRFSGSGSGTDYSLTISNLEQGDVATYFCQQGSSLPWTFGGGTKLEIK: 6510
- 4H2.E3 (antibody, V domains shown, Purified murine mAb from a hybridoma subclone) VH: EVQLQESGPELVKPGASVKMSCKASGYTFTSYLMHWMKQKPGQGLEWIGYINPYSDGIKYNEKFRDKATLTSDKSSNTAYMELSSLTSEDSAVYYCAHSSGYVGYAMDYWGQGTSVTVSS VL: GIVMTQTTPSVPVTPGESVSISCRSSKSLLHSNGNTYLYWFLQRPGQSPQLLIYRMSNLASGVPDRFSGSGSGTTFTLRISRVEAEDVGVYYCMQHLEYPFTFGSGTKLEIK: 3450

INPUT: Need Max MFI of 12H10.G7 (antibody, V domains shown, Purified murine mAb from a hybridoma subclone) VH: EVQLQESGPELVKPGASVKMSCKASGYTFTRYVMHWVKQRPGQGLEWIGFINPYNDDTKYNEKFKGKATLTSDKSSSTAYMELSSLTSEDSAVYHCARWRQLGSLDSWGQGTTLTVSS VL: NIVLTQSPASLAVSLGQRATISCRASESVDTYGSSFVHWYQQKPGQPPKLLIYLASNLESGVPARFSGSGSRSDFTLTIDPVEADDAATYYCQQNNEEPWTFGGGTKLEIK , thanks.
OUTPUT: 5260
